- Tested on: Saccharomyces cerevisiae BY4741 SeMeCo community
- ASSAY EXPLANATION: z-score of subpopulation abundance vs DMSO median, subpopulation auxotrophic for U; higher = larger share of this subpopulation than in DMSO controls
- SETTINGS: 10 µM; 24 h; SM minimal medium; subpopulation (auxotrophy): U
The threshold is inclusive: z-score of subpopulation abundance of exactly 0.3 counts as Criterion met; values below receive Criterion not met.

Some solved cases for reference:
MOLECULE | CLASS LABEL
C[C@]12CC[C@@H]3c4ccc(OS(=O)(=O)O)cc4CC[C@H]3[C@@H]1CCC2=O [Estropipate] | Criterion not met
CN(C)CCCC1(c2ccc(F)cc2)OCc2cc(C#N)ccc21 (centres undefined) | Criterion met
O=C(O)Cc1ccccc1Nc1c(Cl)cccc1Cl [Diclofenac acid] | Criterion not met
Clc1ccc2c(N3CCN(CCCN4CCN(c5ccnc6cc(Cl)ccc56)CC4)CC3)ccnc2c1 [Piperaquine phosphate] | Criterion not met
O=C(O)CCC(=O)c1ccc(-c2ccccc2)cc1 | Criterion met

Now consider the entry below.
[Q] Answer whether z-score of subpopulation abundance of NC(=NCCCCCCN=C(N)N=C(N)Nc1ccc(Cl)cc1)N=C(N)Nc1ccc(Cl)cc1 [Chlorhexidine?2HCl] is greater than or equal to 0.3.
[A] Criterion not met

====

- System: Saccharomyces cerevisiae BY4741 SeMeCo community
- ASSAY EXPLANATION: z-score of prototroph abundance vs DMSO median; higher = larger share of this subpopulation than in DMSO controls
- SETTINGS: 10 µM; 24 h; SM minimal medium; subpopulation (auxotrophy): Prototroph
RECORDED METRIC: z-score of prototroph abundance
// return a plain number; no unit text

COMPOUND | z-score of prototroph abundance
COc1ccc(Cl)cc1C(=O)NCCc1ccc(S(=O)(=O)NC(=O)NC2CCCCC2)cc1 [Glyburide (Glibenclamide)] | -0.6

[Q] Entry COCCOC(=O)C1=C(C)NC(C)=C(C(=O)OC/C=C/c2ccccc2)C1c1cccc([N+](=O)[O-])c1 (stereo unspecified) [Cilnidipine] : reported z-score of prototroph abundance = ?
[A] -0.13

[Q] Entry OCc1ccccc1O[C@@H]1O[C@H](CO)[C@@H](O)[C@H](O)[C@H]1O [Salicin] : reported z-score of prototroph abundance = ?
[A] 0.58

====

The entries below are paired with their reported z-score of subpopulation abundance.
- System: Saccharomyces cerevisiae BY4741 SeMeCo community
- ASSAY EXPLANATION: z-score of subpopulation abundance vs DMSO median, subpopulation auxotrophic for LM; higher = larger share of this subpopulation than in DMSO controls
- SETTINGS: 10 µM; 24 h; SM minimal medium; subpopulation (auxotrophy): LM
Where a name gives a salt, the structure may show the parent alone.
// return a plain number; no unit text

Check out these entries, answers already filled in.
MOLECULE | z-score of subpopulation abundance
CCCCN1CCCCC1C(=O)Nc1c(C)cccc1C (stereo not given) [Bupivacaine HCl] | -0.93
NNc1nncc2ccccc12 [Hydralazine HCl] | -0.56

[Q] # value lookup — system Saccharomyces cerevisiae BY4741 SeMeCo community, readout z-score of subpopulation abundance, item C#C[C@]1(O)CC[C@H]2[C@@H]3CCc4cc(O)ccc4[C@H]3CC[C@@]21C [Ethinyl Estradiol]
[A] -0.77

[Q] # value lookup — system Saccharomyces cerevisiae BY4741 SeMeCo community, readout z-score of subpopulation abundance, item CCCNC(C)C(=O)Nc1ccccc1C (stereo not given) [Prilocaine]
[A] -0.18

====

- Test system: Saccharomyces cerevisiae BY4741 SeMeCo community
- ASSAY EXPLANATION: z-score of subpopulation abundance vs DMSO median, subpopulation auxotrophic for LUM; higher = larger share of this subpopulation than in DMSO controls
- SETTINGS: 10 µM; 24 h; SM minimal medium; subpopulation (auxotrophy): LUM
Structures can show the parent of a compound that is named as a salt.
Labels assigned by z-score of subpopulation abundance range: lower bin = under -0.3, middle bin = from -0.3 up to 0.1, upper bin = 0.1 and over

COMPOUND | CLASS LABEL
COc1cc(N)c(Cl)cc1C(=O)NC1CCN(CCCOc2ccc(F)cc2)CC1OC (stereo not given) [Cisapride] | middle bin

[Q] Each compound maps to one class by z-score of subpopulation abundance. Which class for Nc1ccc(S(N)(=O)=O)cc1 [Sulfanilamide] ?
[A] middle bin

[Q] Each compound maps to one class by z-score of subpopulation abundance. Which class for CO/N=C(/C(=O)N[C@@H]1C(=O)N2C(C(=O)OCOC(=O)C(C)(C)C)=C(C)CS[C@H]12)c1csc(N)n1 [Cefetamet pivoxil hydrochloride] ?
[A] upper bin

[Q] Each compound maps to one class by z-score of subpopulation abundance. Which class for CC(=O)O[C@]1(C(C)=O)CC[C@H]2[C@@H]3C[C@H](C)C4=CC(=O)CC[C@]4(C)[C@H]3CC[C@@]21C [Medroxyprogesterone acetate] ?
[A] middle bin

====

The entries below are paired with their reported z-score of subpopulation abundance.
- System: Saccharomyces cerevisiae BY4741 SeMeCo community
- ASSAY EXPLANATION: z-score of subpopulation abundance vs DMSO median, subpopulation auxotrophic for HM; higher = larger share of this subpopulation than in DMSO controls
- SETTINGS: 10 µM; 24 h; SM minimal medium; subpopulation (auxotrophy): HM
Structures can show the parent of a compound that is named as a salt.

Check out these entries, answers already filled in.
MOLECULE | z-score of subpopulation abundance
O=C(CCCN1CCN(c2ccccn2)CC1)c1ccc(F)cc1 [Azaperone] | -0.63
COc1cccc2c1C(=O)c1c(O)c3c(c(O)c1C2=O)C[C@@](O)(C(=O)CO)C[C@@H]3O[C@H]1C[C@H](N)[C@@H](O)[C@H](C)O1 [Epirubicin HCl] | -3.22

Could you now consider this next molecule?
[Q] Entry CC1(C)S[C@@H]2[C@H](NC(=O)[C@H](N)c3ccccc3)C(=O)N2[C@H]1C(=O)OCOC(=O)[C@@H]1N2C(=O)C[C@H]2S(=O)(=O)C1(C)C [Sultamicillin Tosylate] : reported z-score of subpopulation abundance = ?
[A] 0.76

====

- Test system: Saccharomyces cerevisiae BY4741 SeMeCo community
- ASSAY EXPLANATION: z-score of subpopulation abundance vs DMSO median, subpopulation auxotrophic for L; higher = larger share of this subpopulation than in DMSO controls
- SETTINGS: 10 µM; 24 h; SM minimal medium; subpopulation (auxotrophy): L
Structures can show the parent of a compound that is named as a salt.
RECORDED METRIC: z-score of subpopulation abundance
// return a plain number; no unit text

Check out these entries, answers already filled in.
COMPOUND | z-score of subpopulation abundance
CC1=C(C(=O)O)N2C(=O)[C@@H](NC(=O)[C@H](N)C3=CCC=CC3)[C@H]2SC1 [Cephradine monohydrate] | -0.33
CO/N=C(\C(=O)N[C@@H]1C(=O)N2C(C(=O)O)=C(CSc3nc(C)c(CC(=O)O)s3)CS[C@H]12)c1csc(N)n1 [Cefodizime Sodium] | -0.39
Oc1c(I)cc(I)c2cccnc12 [Diiodohydroxyquinoline] | 0.99
O=c1ccc2cc(O)c(O)cc2o1 | 1.75
COC(=O)Nc1nc2cc([S+]([O-])c3ccccc3)ccc2[nH]1 (centres undefined) | -1.92
CC[C@@H](CO)NCCN[C@@H](CC)CO [Ethambutol 2HCl] | 0.27
O=C1CN2Cc3c(ccc(Cl)c3Cl)N=C2N1 [Anagrelide HCl] | -0.32
CCCCCCCCOc1ccccc1C(=O)Nc1ccc(C(=O)OCC[N+](C)(CC)CC)cc1 [Otilonium Bromide] | -3.08

[Q] Entry Cc1ccc(Sc2ccccc2N2CCNCC2)c(C)c1 [Vortioxetine] : reported z-score of subpopulation abundance = ?
[A] -0.09

====

- Tested on: Saccharomyces cerevisiae BY4741 SeMeCo community
- ASSAY EXPLANATION: z-score of subpopulation abundance vs DMSO median, subpopulation auxotrophic for LU; higher = larger share of this subpopulation than in DMSO controls
- SETTINGS: 10 µM; 24 h; SM minimal medium; subpopulation (auxotrophy): LU
Structures can show the parent of a compound that is named as a salt.
RECORDED METRIC: z-score of subpopulation abundance
// return a plain number; no unit text

COMPOUND | RECORDED METRIC | REPORTED MEASUREMENT
CO/N=C(\C(=O)N[C@@H]1C(=O)N2C(C(=O)O)=C(Cn3ccc(=N)n3CCO)CS[C@H]12)c1csc(N)n1 [Cefoselis Sulfate] | z-score of subpopulation abundance | -0.98

[Q] Entry CN(C)[C@@H]1C(=O)C(C(N)=O)=C(O)[C@@]2(O)C(=O)C3=C(O)c4c(O)ccc(Cl)c4[C@@H](O)[C@H]3C[C@@H]12 [Demeclocycline HCl] : reported z-score of subpopulation abundance = ?
[A] -0.08

[Q] Entry CCN1CCN(c2cc3c(cc2F)c(=O)c(C(=O)O)cn3C2CC2)CC1 : reported z-score of subpopulation abundance = ?
[A] -0.21

[Q] Entry CCN(CC)CCOC(=O)c1ccc(N)cc1 [Procaine HCl] : reported z-score of subpopulation abundance = ?
[A] -0.34

[Q] Entry C[C@@H](O)[C@H]1C(=O)N2C(C(=O)O)=C(S[C@@H]3CN[C@H](C(=O)N(C)C)C3)[C@H](C)[C@H]12 [Meropenem Trihydrate] : reported z-score of subpopulation abundance = ?
[A] 0.63

[Q] Entry COc1ccc(C(Cl)=C(c2ccc(OC)cc2)c2ccc(OC)cc2)cc1 : reported z-score of subpopulation abundance = ?
[A] 0.41

[Q] Entry Nc1ccc2cc3ccc(N)cc3nc2c1 [Proflavine] : reported z-score of subpopulation abundance = ?
[A] -7.09

[Q] Entry Cc1ccccc1OCC(O)CO (stereo not drawn) : reported z-score of subpopulation abundance = ?
[A] -0.42

[Q] Entry CNCCC(Oc1ccc(C(F)(F)F)cc1)c1ccccc1 (stereo not drawn) [Fluoxetine HCl] : reported z-score of subpopulation abundance = ?
[A] 0.51

[Q] Entry O=C(Nc1cccc(C2=NCCN2)c1)Nc1cccc(C2=NCCN2)c1 [Imidocarb dipropionate] : reported z-score of subpopulation abundance = ?
[A] 0.44

[Q] Entry Fc1ccc([C@@H]2CCNC[C@H]2COc2ccc3c(c2)OCO3)cc1 [Paroxetine mesylate] : reported z-score of subpopulation abundance = ?
[A] 0.46

[Q] Entry CCCCOc1cc(C(=O)OCCN(CC)CC)ccc1N [Oxybuprocaine HCl] : reported z-score of subpopulation abundance = ?
[A] -0.72

[Q] Entry N[C@@H]1CONC1=O : reported z-score of subpopulation abundance = ?
[A] -0.16

[Q] Entry O=c1[nH]cnc2c1ncn2[C@@H]1O[C@H](CO)[C@@H](O)[C@H]1O : reported z-score of subpopulation abundance = ?
[A] -1.21

[Q] Entry C[N+](C)(C)CCOC(=O)CCC(=O)OCC[N+](C)(C)C [Succinylcholine Chloride Dihydrate] : reported z-score of subpopulation abundance = ?
[A] -1.48

[Q] Entry CCCCOC(=O)c1ccc(O)cc1 : reported z-score of subpopulation abundance = ?
[A] -1.79

[Q] Entry OC(Cn1cncn1)(Cn1cncn1)c1ccc(F)cc1F : reported z-score of subpopulation abundance = ?
[A] -1.41

[Q] Entry CN(C)C[C@@H]1CCn2cc(c3ccccc32)C2=C(C(=O)NC2=O)c2cn(c3ccccc23)CCO1 : reported z-score of subpopulation abundance = ?
[A] 1.13

[Q] Entry C[C@@H](O)[C@H]1C(=O)N2C(C(=O)OCOC(=O)C(C)(C)C)=C(SC3CN(C4=NCCS4)C3)[C@H](C)[C@H]12 : reported z-score of subpopulation abundance = ?
[A] -0.6

[Q] Entry N[C@@H]1CN(c2c(F)cc3c(=O)c(C(=O)O)cn([C@@H]4C[C@@H]4F)c3c2Cl)CC12CC2 [Sitafloxacin Hydrate] : reported z-score of subpopulation abundance = ?
[A] 0.44

[Q] Entry C[C@]12CC[C@@H]3c4ccc(OC(=O)c5ccccc5)cc4CC[C@H]3[C@@H]1CC[C@@H]2O [Estradiol Benzoate] : reported z-score of subpopulation abundance = ?
[A] -0.68

[Q] Entry C[n+]1ccccc1C=NO [Pralidoxime Iodide] : reported z-score of subpopulation abundance = ?
[A] 0.19

[Q] Entry CC[C@H](c1ccc(O)cc1)[C@@H](CC)c1ccc(O)cc1 : reported z-score of subpopulation abundance = ?
[A] -1.49

[Q] Entry OC[C@H]1O[C@H](OCC2O[C@@H](O)[C@H](O)[C@@H](O)[C@@H]2O)[C@H](O)[C@@H](O)[C@H]1O (stereo partly drawn) : reported z-score of subpopulation abundance = ?
[A] 0.81

[Q] Entry CO/N=C(\C(=O)N[C@@H]1C(=O)N2C(C(=O)[O-])=C(C[N+]3(C)CCCC3)CS[C@H]12)c1csc(N)n1 [Cefepime Dihydrochloride Monohydrate] : reported z-score of subpopulation abundance = ?
[A] 0.05

[Q] Entry COc1ccccc1N1CCN(CCCNc2cc(=O)n(C)c(=O)n2C)CC1 [Urapidil HCl] : reported z-score of subpopulation abundance = ?
[A] 0.29

[Q] Entry CC(C)[C@H](N)C(=O)OCCOCn1cnc2c(=O)nc(N)[nH]c21 [Valaciclovir HCl] : reported z-score of subpopulation abundance = ?
[A] -0.13
